Assignment: determine reported pEC50 for the given molecules.
- target-entity: mGluR7 (Homo sapiens, UniProt Q14831)
- Sequence (Q14831 35-915): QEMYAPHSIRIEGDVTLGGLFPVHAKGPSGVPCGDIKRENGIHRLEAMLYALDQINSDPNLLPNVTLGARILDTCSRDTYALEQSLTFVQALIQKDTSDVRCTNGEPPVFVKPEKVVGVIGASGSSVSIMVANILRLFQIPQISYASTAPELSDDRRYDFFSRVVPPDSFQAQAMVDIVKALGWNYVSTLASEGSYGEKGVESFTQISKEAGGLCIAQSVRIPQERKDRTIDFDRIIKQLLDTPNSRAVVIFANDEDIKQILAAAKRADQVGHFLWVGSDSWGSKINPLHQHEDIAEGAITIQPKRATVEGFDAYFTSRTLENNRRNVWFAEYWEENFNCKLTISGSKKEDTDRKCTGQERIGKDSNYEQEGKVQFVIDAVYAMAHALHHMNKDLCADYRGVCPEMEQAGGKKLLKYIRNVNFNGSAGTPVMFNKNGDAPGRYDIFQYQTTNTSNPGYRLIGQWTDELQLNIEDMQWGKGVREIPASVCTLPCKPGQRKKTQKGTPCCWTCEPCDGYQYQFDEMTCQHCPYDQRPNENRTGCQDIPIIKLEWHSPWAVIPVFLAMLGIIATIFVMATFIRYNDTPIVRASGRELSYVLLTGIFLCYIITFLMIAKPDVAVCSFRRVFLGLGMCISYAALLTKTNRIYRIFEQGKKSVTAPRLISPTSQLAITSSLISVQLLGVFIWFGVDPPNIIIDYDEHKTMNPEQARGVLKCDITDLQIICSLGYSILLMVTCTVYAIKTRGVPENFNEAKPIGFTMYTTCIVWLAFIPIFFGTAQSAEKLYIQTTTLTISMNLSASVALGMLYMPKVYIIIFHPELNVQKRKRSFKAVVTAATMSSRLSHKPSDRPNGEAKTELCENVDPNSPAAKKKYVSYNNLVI
- assay-comment: cAMP CRE-luciferase reporter gene assay (Steady Glo) in CHO-CRE-luc cells stably expressing human mGluR7
- Type: cell-based
- Set-up: expressed in transfected cells
- test-context: reduction of forskolin stimulated cAMP (luminescence); CHO CRE-luc human mGluR7; read-out: EC50
FYI, pEC50 means -log10 of a concentration in mol per litre.

Given the entry C[C@H](C(=O)NC1COc2ccccc2C1(C)O)c1ccccc1 (single isomer, unassigned) [Example 7] , report its measured pEC50.
6.04

Given the entry COC1c2ccccc2OCC1NC(=O)[C@@H](C)c1ccccc1 (single isomer, unassigned) [Example 11] , report its measured pEC50.
7.26

Given the entry C[C@H](C(=O)NC1COc2ccccc2C1S(C)(=O)=O)c1ccc(F)cc1 (single isomer, unassigned) [Example 17] , report its measured pEC50.
7.55

Given the entry C[C@H](C(=O)NC1COc2ccccc2C1S(C)(=O)=O)c1ccc(Cl)cc1 (single isomer, unassigned) [Example 21] , report its measured pEC50.
7.48

Given the entry CO[C@@H]1c2ccccc2OC[C@H]1NC(=O)C(c1ccc(F)cc1F)N1CC(OC(F)(F)F)C1 (relative stereo) [Example 25] , report its measured pEC50.
7.57

Given the entry COC1c2ccccc2OCC1NC(=O)[C@@H]1c2ccccc2CC(=O)N1CCCF (single isomer, unassigned) [Example 27] , report its measured pEC50.
7.66

Given the entry C[C@H](C(=O)NC1COc2ccccc2C1N1CCC(F)(F)C1)c1ccc(F)cc1 (single isomer, unassigned) [Example 38] , report its measured pEC50.
7.52

Given the entry C[C@H](C(=O)NC1COc2ccccc2C1S(C)(=O)=O)c1ccccc1 (single isomer, unassigned) [Example 13] , report its measured pEC50.
7.59

Given the entry C[C@H](C(=O)NC1COc2ccccc2C1S(C)(=O)=O)c1ccc(F)cc1 (single isomer, unassigned) [Example 16] , report its measured pEC50.
8.15

Given the entry CNC1c2ccccc2OCC1NC(=O)[C@@H](C)c1ccccc1 (stereo in doubt) [Example 14] , report its measured pEC50.
7.19

Given the entry CNC1c2ccccc2OCC1NC(=O)[C@@H](C)c1ccc(F)cc1 (single isomer, unassigned) [Example 22] , report its measured pEC50.
7.16

Given the entry C[C@H](C(=O)NC1COc2ccccc2C1O)c1ccccc1 (single isomer, unassigned) [Example 1] , report its measured pEC50.
6.06

Given the entry C[C@H](C(=O)NC1COc2ccccc2C1N1CCOCC1)c1ccc(F)cc1 (single isomer, unassigned) [Example 39] , report its measured pEC50.
7.64

Given the entry CO[C@@H]1c2ccccc2OC[C@H]1NC(=O)C(c1ccc(F)cc1F)n1ccccc1=O (relative stereo) [Example 32] , report its measured pEC50.
6.52
